test system: HUVEC normal cells; assay: MTT cell viability assay, normal HUVEC; type: cell-based; conditions: Homo sapiens, 48 h, average ± SD (n = 3)

- compound: "COc1cccc2c1C(=O)c1c(O)c3c(c(O)c1C2=O)C[C@@](O)(C(=O)CO)C[C@@H]3O[C@H]1C[C@H](N)[C@H](O)[C@H](C)O1 [Doxorubicin, reference compound]"
  experimental.system: "HUVEC normal cells"
  bound.sign: "="
  IC50, µM: 3.7
- compound: "COc1cc(NC(=O)CNS(=O)(=O)c2ccc(-n3c(SCC(=O)Nc4cc(OC)cc(OC)c4)nc4c(OC)cccc4c3=O)cc2)cc(OC)c1 [Compound 4j]"
  experimental.system: "HUVEC normal cells"
  bound.sign: ">"
  IC50, µM: 40
- compound: "CCc1cccc(NC(=O)CNS(=O)(=O)c2ccc(-n3c(SCC(=O)Nc4cccc(CC)c4)nc4c(OC)cccc4c3=O)cc2)c1 [Compound 4f]"
  experimental.system: "HUVEC normal cells"
  bound.sign: "="
  IC50, µM: 17.9
- compound: "CCc1ccc(NC(=O)CNS(=O)(=O)c2ccc(-n3c(SCC(=O)Nc4ccc(CC)cc4)nc4c(OC)cccc4c3=O)cc2)cc1 [Compound 4g]"
  experimental.system: "HUVEC normal cells"
  bound.sign: ">"
  IC50, µM: 40
- compound: "COc1cccc2c(=O)n(-c3ccc(S(=O)(=O)NCC(=O)Nc4ccc([N+](=O)[O-])cc4C)cc3)c(SCC(=O)Nc3ccc([N+](=O)[O-])cc3C)nc12 [Compound 4l]"
  experimental.system: "HUVEC normal cells"
  bound.sign: ">"
  IC50, µM: 40
- compound: "COc1cc(NC(=O)CNS(=O)(=O)c2ccc(-n3c(SCC(=O)Nc4cc(OC)c(OC)c(OC)c4)nc4c(OC)cccc4c3=O)cc2)cc(OC)c1OC [Compound 4k]"
  experimental.system: "HUVEC normal cells"
  bound.sign: ">"
  IC50, µM: 40
- compound: "COc1cccc2c(=O)n(-c3ccc(S(=O)(=O)NCC(=O)Nc4ccccc4)cc3)c(SCC(=O)Nc3ccccc3)nc12 [Compound 4a]"
  experimental.system: "HUVEC normal cells"
  bound.sign: "="
  IC50, µM: 20.9

###

Each record here notes measured IC50.
Test system: HUVEC normal cells
Experiment: MTT cell viability assay, normal HUVEC
Type: cell-based
Details: Homo sapiens, 48 h, average ± SD (n = 3)
Protocol: Compounds 4a–n were subjected to the cytotoxicity screening of the cell lines MCF-7 (breast), LoVo (colon), HepG2 (liver) and A549 (lung) carcinoma cells as well as HUVEC normal cell lines. […] Cell viability was determined using 3-(4,5-dimethylthiazol-2-yl)-2,5-diphenyl tetrazolium bromide (MTT) assay as stated previously. […] Cell viability was calculated as = (Ab Treated/Ab Control) × 100. […]

- smiles.notation: "COc1cccc2c(=O)n(-c3ccc(S(=O)(=O)NCC(=O)Nc4ccc(C)cc4)cc3)c(SCC(=O)Nc3ccc(C)cc3)nc12"
  result.unit: "µM"
  bound.sign: "="
  IC50: 7.8
- smiles.notation: "COc1cccc2c(=O)n(-c3ccc(S(=O)(=O)NCC(=O)Nc4c(C)cccc4[N+](=O)[O-])cc3)c(SCC(=O)Nc3c(C)cccc3[N+](=O)[O-])nc12"
  result.unit: "µM"
  bound.sign: ">"
  IC50: 40
- smiles.notation: "COc1cccc2c(=O)n(-c3ccc(S(=O)(=O)NCC(=O)Nc4cccc(C)c4)cc3)c(SCC(=O)Nc3cccc(C)c3)nc12"
  result.unit: "µM"
  bound.sign: ">"
  IC50: 40
- smiles.notation: "COc1cccc2c(=O)n(-c3ccc(S(=O)(=O)NCC(=O)Nc4ccccc4C)cc3)c(SCC(=O)Nc3ccccc3C)nc12"
  result.unit: "µM"
  bound.sign: "="
  IC50: 32.7
- smiles.notation: "CCc1ccccc1NC(=O)CNS(=O)(=O)c1ccc(-n2c(SCC(=O)Nc3ccccc3CC)nc3c(OC)cccc3c2=O)cc1"
  result.unit: "µM"
  bound.sign: ">"
  IC50: 40
- smiles.notation: "CCOc1ccc(NC(=O)CNS(=O)(=O)c2ccc(-n3c(SCC(=O)Nc4ccc(OCC)cc4)nc4c(OC)cccc4c3=O)cc2)cc1"
  result.unit: "µM"
  bound.sign: "="
  IC50: 18.2

###

Each record here notes measured melting point.

- compound: "CCc1ccc(NC(=O)CNS(=O)(=O)c2ccc(-n3c(SCC(=O)Nc4ccc(CC)cc4)nc4c(OC)cccc4c3=O)cc2)cc1 [Compound 4g]"
  melting point: "219 to 221 °C"
- compound: "COc1cccc2c(=O)n(-c3ccc(S(=O)(=O)NCC(=O)Nc4cccc(C)c4)cc3)c(SCC(=O)Nc3cccc(C)c3)nc12 [Compound 4c]"
  melting point: "112 to 114 °C"
- compound: "COc1cc(NC(=O)CNS(=O)(=O)c2ccc(-n3c(SCC(=O)Nc4cc(OC)cc(OC)c4)nc4c(OC)cccc4c3=O)cc2)cc(OC)c1 [Compound 4j]"
  melting point: "239 to 241 °C"
- compound: "COc1cccc2c(=O)n(-c3ccc(S(=O)(=O)NCC(=O)Nc4c(C)cccc4[N+](=O)[O-])cc3)c(SCC(=O)Nc3c(C)cccc3[N+](=O)[O-])nc12 [Compound 4m]"
  melting point: "272 to 274 °C"
- compound: "COc1cc(NC(=O)CNS(=O)(=O)c2ccc(-n3c(SCC(=O)Nc4cc(OC)c(OC)c(OC)c4)nc4c(OC)cccc4c3=O)cc2)cc(OC)c1OC [Compound 4k]"
  melting point: "260 to 262 °C"
- compound: "COc1cccc2c(=O)n(-c3ccc(S(=O)(=O)NCC(=O)Nc4ccccc4C)cc3)c(SCC(=O)Nc3ccccc3C)nc12 [Compound 4b]"
  melting point: "102 to 104 °C"

###

measured.attribute: melting point

- smiles.notation: "CCOc1ccc(NC(=O)CNS(=O)(=O)c2ccc(-n3c(SCC(=O)Nc4ccc(OCC)cc4)nc4c(OC)cccc4c3=O)cc2)cc1"
  reported.value: "> 350 °C"
- smiles.notation: "COc1cccc2c(=O)n(-c3ccc(S(=O)(=O)NCC(=O)Nc4ccc([N+](=O)[O-])cc4C)cc3)c(SCC(=O)Nc3ccc([N+](=O)[O-])cc3C)nc12"
  reported.value: "127 to 129 °C"
- smiles.notation: "CCc1ccccc1NC(=O)CNS(=O)(=O)c1ccc(-n2c(SCC(=O)Nc3ccccc3CC)nc3c(OC)cccc3c2=O)cc1"
  reported.value: "246 to 248 °C"
- smiles.notation: "COc1cccc2c(=O)n(-c3ccc(S(=O)(=O)NCC(=O)Nc4ccccc4)cc3)c(SCC(=O)Nc3ccccc3)nc12"
  reported.value: "165 to 167 °C"
- smiles.notation: "COc1ccc(NC(=O)CNS(=O)(=O)c2ccc(-n3c(SCC(=O)Nc4ccc(OC)cc4)nc4c(OC)cccc4c3=O)cc2)cc1"
  reported.value: "117 to 119 °C"

###

system: LoVo (colon) cancer cells; assay: MTT cell viability assay, LoVo; type: cell-based; settings: Homo sapiens, 48 h, average ± SD (n = 3)
Each record here notes measured IC50.

- molecule: "COc1ccc(NC(=O)CNS(=O)(=O)c2ccc(-n3c(SCC(=O)Nc4ccc(OC)cc4)nc4c(OC)cccc4c3=O)cc2)cc1 [Compound 4h]"
  bound.sign: "="
  IC50 / µM: 31.7
- molecule: "CCOc1ccc(NC(=O)CNS(=O)(=O)c2ccc(-n3c(SCC(=O)Nc4ccc(OCC)cc4)nc4c(OC)cccc4c3=O)cc2)cc1 [Compound 4i]"
  bound.sign: "="
  IC50 / µM: 22
- molecule: "CCc1ccccc1NC(=O)CNS(=O)(=O)c1ccc(-n2c(SCC(=O)Nc3ccccc3CC)nc3c(OC)cccc3c2=O)cc1 [Compound 4e]"
  bound.sign: ">"
  IC50 / µM: 40
- molecule: "CCc1ccc(NC(=O)CNS(=O)(=O)c2ccc(-n3c(SCC(=O)Nc4ccc(CC)cc4)nc4c(OC)cccc4c3=O)cc2)cc1 [Compound 4g]"
  bound.sign: ">"
  IC50 / µM: 40
- molecule: "CCc1cccc(NC(=O)CNS(=O)(=O)c2ccc(-n3c(SCC(=O)Nc4cccc(CC)c4)nc4c(OC)cccc4c3=O)cc2)c1 [Compound 4f]"
  bound.sign: "="
  IC50 / µM: 9.76
- molecule: "COc1cccc2c1C(=O)c1c(O)c3c(c(O)c1C2=O)C[C@@](O)(C(=O)CO)C[C@@H]3O[C@H]1C[C@H](N)[C@H](O)[C@H](C)O1 [Doxorubicin, reference compound]"
  bound.sign: "="
  IC50 / µM: 1.5
- molecule: "COc1cccc2c(=O)n(-c3ccc(S(=O)(=O)NCC(=O)Nc4ccccc4C)cc3)c(SCC(=O)Nc3ccccc3C)nc12 [Compound 4b]"
  bound.sign: "="
  IC50 / µM: 35.8
- molecule: "COc1cc(NC(=O)CNS(=O)(=O)c2ccc(-n3c(SCC(=O)Nc4cc(OC)cc(OC)c4)nc4c(OC)cccc4c3=O)cc2)cc(OC)c1 [Compound 4j]"
  bound.sign: ">"
  IC50 / µM: 40
- molecule: "COc1cc(NC(=O)CNS(=O)(=O)c2ccc(-n3c(SCC(=O)Nc4cc(OC)c(OC)c(OC)c4)nc4c(OC)cccc4c3=O)cc2)cc(OC)c1OC [Compound 4k]"
  bound.sign: ">"
  IC50 / µM: 40
- molecule: "COc1cccc2c(=O)n(-c3ccc(S(=O)(=O)NCC(=O)Nc4ccccc4)cc3)c(SCC(=O)Nc3ccccc3)nc12 [Compound 4a]"
  bound.sign: "="
  IC50 / µM: 37.5
- molecule: "COc1cccc2c(=O)n(-c3ccc(S(=O)(=O)NCC(=O)Nc4ccc(C)cc4)cc3)c(SCC(=O)Nc3ccc(C)cc3)nc12 [Compound 4d]"
  bound.sign: "="
  IC50 / µM: 6.87
- molecule: "COc1cccc2c(=O)n(-c3ccc(S(=O)(=O)NCC(=O)Nc4ccc([N+](=O)[O-])cc4C)cc3)c(SCC(=O)Nc3ccc([N+](=O)[O-])cc3C)nc12 [Compound 4l]"
  bound.sign: ">"
  IC50 / µM: 40
- molecule: "COc1cccc2c(=O)n(-c3ccc(S(=O)(=O)NCC(=O)Nc4c(C)cccc4[N+](=O)[O-])cc3)c(SCC(=O)Nc3c(C)cccc3[N+](=O)[O-])nc12 [Compound 4m]"
  bound.sign: ">"
  IC50 / µM: 40
- molecule: "COc1cccc2c(=O)n(-c3ccc(S(=O)(=O)NCC(=O)Nc4cccc(C)c4)cc3)c(SCC(=O)Nc3cccc(C)c3)nc12 [Compound 4c]"
  bound.sign: ">"
  IC50 / µM: 40
